The reported measurements were obtained from patent US10294202B2.

System: johnsongrass
Experiment: Test C pre-/postemergence herbicide test
Format: in vivo, Sorghum halepense
Settings: Preemergence, 62 g ai/ha; scale 0 to 100 (0 no effect, 100 complete control)

- MOLECULE: "O=C1NCC(c2cccc(OC(F)F)c2)C1C(=O)Nc1cccc(F)c1F (centres unmarked)"
  TARGET ENTITY: "johnsongrass"
  Johnsongrass plant response rating: 35
- MOLECULE: "CN1CC(c2cccc(C(F)(F)F)c2)C(C(=O)Nc2cccc(F)c2F)C1=O (centres unmarked)"
  TARGET ENTITY: "johnsongrass"
  Johnsongrass plant response rating: 85
- MOLECULE: "O=C1NCC(c2ccc(Cl)cc2)C1C(=O)Nc1cccc(F)c1F (centres unmarked)"
  TARGET ENTITY: "johnsongrass"
  Johnsongrass plant response rating: 10
- MOLECULE: "CN1CC(c2ccc(C(F)(F)F)cc2)C(C(=O)Nc2cccc(F)c2F)C1=O (centres unmarked)"
  TARGET ENTITY: "johnsongrass"
  Johnsongrass plant response rating: 55
- MOLECULE: "O=C1NCC(c2cccc(OC(F)F)c2)C1C(=O)Nc1ccccc1F (centres unmarked)"
  TARGET ENTITY: "johnsongrass"
  Johnsongrass plant response rating: 0
- MOLECULE: "O=C1NCC(c2ccc(OC(F)F)cc2)C1C(=O)Nc1cccc(F)c1F (racemic)"
  TARGET ENTITY: "johnsongrass"
  Johnsongrass plant response rating: 0
- MOLECULE: "CN1CC(c2ccc(F)c(F)c2)C(C(=O)Nc2cccc(F)c2F)C1=O (centres unmarked)"
  TARGET ENTITY: "johnsongrass"
  Johnsongrass plant response rating: 55
- MOLECULE: "O=C1NCC(c2cccc(Br)c2)C1C(=O)Nc1ccc(F)c(F)c1F (centres unmarked)"
  TARGET ENTITY: "johnsongrass"
  Johnsongrass plant response rating: 0

###

Test system: lambsquarters
Test: Test C pre-/postemergence herbicide test
Assay type: in vivo, Chenopodium album
Conditions: Preemergence, 62 g ai/ha; scale 0 to 100
# Plant response rating, Lambsquarters per entry

- COMPOUND: "O=C1NCC(c2ccc(C(F)(F)F)cc2)C1C(=O)Nc1cccc(F)c1F (stereo not shown)"
  Plant response rating, Lambsquarters: 85
- COMPOUND: "O=C1NCC(c2ccc(F)cc2)C1C(=O)Nc1ccc(F)c(F)c1F (racemic)"
  Plant response rating, Lambsquarters: 70
- COMPOUND: "O=C1NCC(c2cccc(OC(F)(F)F)c2)C1C(=O)Nc1ccccc1F (stereo not shown)"
  Plant response rating, Lambsquarters: 35
- COMPOUND: "O=C1NCC(c2ccc(C(F)(F)F)cc2)C1C(=O)Nc1ccccc1F (stereo not shown)"
  Plant response rating, Lambsquarters: 90

###

System: oat, wild
Test: Test C pre-/postemergence herbicide test
Type: in vivo, Avena fatua
Settings: Postemergence, 31 g ai/ha; scale 0 to 100 (0 no effect, 100 complete control)
Source text: […]
READOUT LABEL: Plant response rating, Oat, Wild

- COMPOUND: "O=C1NCC(c2ccc(C(F)(F)F)cc2)C1C(=O)Nc1cccc(F)c1F (racemic)"
  READOUT LABEL: "Plant response rating, Oat, Wild"
  OBSERVED VALUE: 0
- COMPOUND: "O=C1NCC(c2ccc(F)cc2)C1C(=O)Nc1ccc(F)c(F)c1F (racemic)"
  READOUT LABEL: "Plant response rating, Oat, Wild"
  OBSERVED VALUE: 0
- COMPOUND: "CN1CC(c2ccc(F)c(F)c2)C(C(=O)Nc2cccc(F)c2F)C1=O (stereo not shown)"
  READOUT LABEL: "Plant response rating, Oat, Wild"
  OBSERVED VALUE: 0
- COMPOUND: "O=C1NC[C@H](c2cccc(C(F)(F)F)c2)[C@H]1C(=O)Nc1ccccc1F"
  READOUT LABEL: "Plant response rating, Oat, Wild"
  OBSERVED VALUE: 0

###

System: giant foxtail
Test: Test A pre-/postemergence herbicide test
Type: in vivo, Setaria faberii
Settings: 125 g ai/ha; visual rating, 0 to 100 scale, 0 no effect, 100 complete control; approximately 10 days; preemergence
Entry flag: rule met if Plant response rating, Foxtail, Giant reaches 70; rule not met if it does not.

- COMPOUND: "O=C1NCC(c2ccc3ccccc3c2)C1C(=O)Nc1ccccc1C(F)(F)F (racemic) [Compound 117]"
  LABEL VALUE: "rule not met"
- COMPOUND: "COc1ccc(NC(=O)C2C(=O)NCC2c2cccc(C(F)(F)F)c2)cc1F (racemic) [Compound 188]"
  LABEL VALUE: "rule not met"
- COMPOUND: "COc1cc(C2CNC(=O)C2C(=O)Nc2cccc(F)c2F)ccc1F (racemic) [Compound 195]"
  LABEL VALUE: "rule met"
- COMPOUND: "O=C1NCC(c2cccc(OC(F)F)c2)C1C(=O)Nc1ccccc1Br (stereo not shown) [Compound 228]"
  LABEL VALUE: "rule met"
- COMPOUND: "O=C1NCC(c2ccc(C(F)(F)F)cc2)C1C(=O)Nc1cccc(F)c1F (racemic) [Compound 202]"
  LABEL VALUE: "rule met"
- COMPOUND: "O=C1NCC(c2cccc(C(F)(F)F)c2)C1C(=O)Nc1ccccc1Br (racemic) [Compound 190]"
  LABEL VALUE: "rule met"
- COMPOUND: "Cc1cc(C2CNC(=O)C2C(=O)Nc2ccccc2F)ccc1F (racemic) [Compound 139]"
  LABEL VALUE: "rule not met"
- COMPOUND: "O=C1NCC(c2ccc(F)cc2)C1C(=O)Nc1ccc(F)c(F)c1F (racemic) [Compound 120]"
  LABEL VALUE: "rule met"
- COMPOUND: "O=C1NC[C@H](c2cccc(C(F)(F)F)c2)[C@H]1C(=O)Nc1cccc(F)c1F [Compound 206]"
  LABEL VALUE: "rule met"

###

Tested on: wheat
Assay: Test A pre-/postemergence herbicide test
Type: in vivo, Triticum aestivum
Details: preemergence, 500 g ai/ha; 0 to 100 scale
READOUT LABEL: Plant response rating, Wheat

- COMPOUND: "O=C1NCC(c2ccccc2)C1C(=O)Nc1ccccc1Cl (racemic) [Compound 83]"
  TARGET ENTITY: "wheat"
  OBSERVED VALUE: 0
- COMPOUND: "O=C1NCC(c2ccc3ccccc3c2)C1C(=O)Nc1ccccc1F (racemic) [Compound 115]"
  TARGET ENTITY: "wheat"
  OBSERVED VALUE: 0
- COMPOUND: "O=C1NCC(c2cccc(OC(F)(F)F)c2)C1C(=O)Nc1ccccc1F (stereo not drawn) [Compound 69]"
  TARGET ENTITY: "wheat"
  OBSERVED VALUE: 20
- COMPOUND: "O=C1NCC(c2ccc(F)c(F)c2)C1C(=O)Nc1ccccc1OC(F)(F)F (stereo not drawn) [Compound 54]"
  TARGET ENTITY: "wheat"
  OBSERVED VALUE: 20
- COMPOUND: "O=C1NCC(c2cccc(Cl)c2)C1C(=O)Nc1ccccc1F (racemic) [Compound 89]"
  TARGET ENTITY: "wheat"
  OBSERVED VALUE: 10
- COMPOUND: "CC1NC(=O)C(C(=O)Nc2ccccc2C(F)(F)F)C1c1ccc(F)c(F)c1 (mixture of isomers) [Compound 9]"
  TARGET ENTITY: "wheat"
  OBSERVED VALUE: 0
- COMPOUND: "O=C1NCC(c2ccc(Cl)c(Cl)c2)C1C(=O)Nc1ccccc1OC(F)(F)F (racemic) [Compound 32]"
  TARGET ENTITY: "wheat"
  OBSERVED VALUE: 0
- COMPOUND: "O=C1NCC(c2cc(Cl)cc(Cl)c2)C1C(=O)Nc1ccccc1F (racemic) [Compounds 90]"
  TARGET ENTITY: "wheat"
  OBSERVED VALUE: 0
- COMPOUND: "Cc1cccc(C2CNC(=O)C2C(=O)Nc2ccccc2F)c1 (racemic) [Compound 38]"
  TARGET ENTITY: "wheat"
  OBSERVED VALUE: 0
- COMPOUND: "O=C1NCC(c2ccccc2Cl)C1C(=O)Nc1ccccc1F (racemic) [Compound 88]"
  TARGET ENTITY: "wheat"
  OBSERVED VALUE: 0
- COMPOUND: "O=C1NCC(c2ccccc2F)C1C(=O)Nc1ccccc1F (racemic) [Compound 85]"
  TARGET ENTITY: "wheat"
  OBSERVED VALUE: 0
- COMPOUND: "O=C1NCC(c2cc(F)c(F)cc2F)C1C(=O)Nc1cccc(F)c1F (stereo not drawn) [Compound 50]"
  TARGET ENTITY: "wheat"
  OBSERVED VALUE: 0
- COMPOUND: "O=C1NCC(c2ccc(F)c(F)c2)C1C(=O)Nc1cccc(F)c1F (racemic) [Compound 101]"
  TARGET ENTITY: "wheat"
  OBSERVED VALUE: 70
- COMPOUND: "O=C1NCC(c2ccc(Cl)c(Cl)c2)C1C(=O)Nc1ccccc1F (racemic) [Compound 14]"
  TARGET ENTITY: "wheat"
  OBSERVED VALUE: 0
- COMPOUND: "O=C1NCC(c2cc(F)c(F)cc2F)C1C(=O)Nc1ccccc1F (stereo not drawn) [Compound 51]"
  TARGET ENTITY: "wheat"
  OBSERVED VALUE: 0
